B1: Osa-1-4 twister ribozyme (parent)
chain: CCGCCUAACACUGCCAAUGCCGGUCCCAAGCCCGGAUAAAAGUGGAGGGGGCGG

variants of: B1; assay: self-cleavage, relative activity (ratio to wild type); higher = more cleavage; co-transcriptional
Label FALSE if self-cleavage falls below 0.05; label TRUE in every other case.

Exercise: Given G13A U18A , state whether its self-cleavage is at least 0.05.
Solution: TRUE

Exercise: Given A17U C11A , state whether its self-cleavage is at least 0.05.
Solution: TRUE

Exercise: Given A36G G42A , state whether its self-cleavage is at least 0.05.
Solution: TRUE

Exercise: Given A8U U12C , state whether its self-cleavage is at least 0.05.
Solution: TRUE

Exercise: Given A36C C26A , state whether its self-cleavage is at least 0.05.
Solution: FALSE

Exercise: Given A17G A46C , state whether its self-cleavage is at least 0.05.
Solution: TRUE

Exercise: Given A39U U37C , state whether its self-cleavage is at least 0.05.
Solution: TRUE

Exercise: Given A38C A46C , state whether its self-cleavage is at least 0.05.
Solution: FALSE
